# TARGET OR TEST SYSTEM: CYP P450 2A6 (Homo sapiens, UniProt P11509)
# Sequence (P11509 whole entry): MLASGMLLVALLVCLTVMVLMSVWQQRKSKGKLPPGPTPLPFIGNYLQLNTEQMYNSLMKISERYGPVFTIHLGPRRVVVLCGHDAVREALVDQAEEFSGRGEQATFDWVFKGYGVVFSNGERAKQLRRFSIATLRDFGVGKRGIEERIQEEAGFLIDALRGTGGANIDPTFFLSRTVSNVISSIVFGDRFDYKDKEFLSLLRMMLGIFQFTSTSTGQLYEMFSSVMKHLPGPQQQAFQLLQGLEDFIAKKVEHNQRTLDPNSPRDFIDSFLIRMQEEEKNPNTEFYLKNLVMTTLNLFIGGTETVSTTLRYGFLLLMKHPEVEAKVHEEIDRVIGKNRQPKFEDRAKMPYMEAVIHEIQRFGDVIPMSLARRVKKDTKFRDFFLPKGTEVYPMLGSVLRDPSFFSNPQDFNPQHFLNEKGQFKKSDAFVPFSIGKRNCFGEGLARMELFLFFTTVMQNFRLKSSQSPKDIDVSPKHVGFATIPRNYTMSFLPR
# ASSAY OVERVIEW: P450 inhibition 2A6
# Format: in vitro ADME
# MEASUREMENT SETUP: read-out: IC50 CYP450 2A6
pIC50: −log10 of the molar value.
PROPERTY: pIC50

> print(dat)
                                   compound  property  recorded.value
1  Cc1ccc(-c2ncn(-c3ccc(Nc4nccc(-c5cccc(N6CCOCC6)c5)n4)cc3)n2)cn1 [SR-3306]     pIC50          < 4.30

----------
# TARGET OR TEST SYSTEM: CYP P450 2E1 (Homo sapiens)
# ASSAY OVERVIEW: P450 inhibition 2E1
# Format: in vitro ADME
# MEASUREMENT SETUP: read-out: IC50 CYP450 2E1
PROPERTY: IC50

> print(dat)
                           structure.smiles  property  recorded.value
1  Cc1ccc(-c2ncn(-c3ccc(Nc4nccc(-c5cccc(N6CCOCC6)c5)n4)cc3)n2)cn1      IC50         > 50 µM

----------
# TARGET OR TEST SYSTEM: CYP P450 2C9 (Homo sapiens, UniProt P11712)
# Sequence (P11712 whole entry): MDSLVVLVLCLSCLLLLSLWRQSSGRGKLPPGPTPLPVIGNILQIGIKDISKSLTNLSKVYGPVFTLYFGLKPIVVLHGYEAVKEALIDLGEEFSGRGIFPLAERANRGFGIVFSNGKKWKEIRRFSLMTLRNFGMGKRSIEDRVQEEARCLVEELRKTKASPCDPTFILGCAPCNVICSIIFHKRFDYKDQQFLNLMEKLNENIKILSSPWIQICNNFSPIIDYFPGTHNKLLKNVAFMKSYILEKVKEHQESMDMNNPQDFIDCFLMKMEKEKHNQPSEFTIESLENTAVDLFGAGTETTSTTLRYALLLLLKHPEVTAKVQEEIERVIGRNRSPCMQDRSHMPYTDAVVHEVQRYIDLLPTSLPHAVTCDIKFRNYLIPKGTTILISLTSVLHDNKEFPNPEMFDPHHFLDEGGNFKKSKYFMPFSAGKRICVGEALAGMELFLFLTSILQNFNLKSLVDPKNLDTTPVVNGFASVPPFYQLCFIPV
# MEASUREMENT SETUP: read-out: IC50 CYP450 2C9
pIC50: −log10 of the molar value.
PROPERTY: pIC50

> print(dat)
                                   compound  recorded.value
1  Cc1ccc(-c2ncn(-c3ccc(Nc4nccc(-c5cccc(N6CCOCC6)c5)n4)cc3)n2)cn1 [SR-3306]          < 4.30

----------
# TARGET OR TEST SYSTEM: CYP P450 2C8 (Homo sapiens, UniProt P10632)
# Sequence (P10632 whole entry): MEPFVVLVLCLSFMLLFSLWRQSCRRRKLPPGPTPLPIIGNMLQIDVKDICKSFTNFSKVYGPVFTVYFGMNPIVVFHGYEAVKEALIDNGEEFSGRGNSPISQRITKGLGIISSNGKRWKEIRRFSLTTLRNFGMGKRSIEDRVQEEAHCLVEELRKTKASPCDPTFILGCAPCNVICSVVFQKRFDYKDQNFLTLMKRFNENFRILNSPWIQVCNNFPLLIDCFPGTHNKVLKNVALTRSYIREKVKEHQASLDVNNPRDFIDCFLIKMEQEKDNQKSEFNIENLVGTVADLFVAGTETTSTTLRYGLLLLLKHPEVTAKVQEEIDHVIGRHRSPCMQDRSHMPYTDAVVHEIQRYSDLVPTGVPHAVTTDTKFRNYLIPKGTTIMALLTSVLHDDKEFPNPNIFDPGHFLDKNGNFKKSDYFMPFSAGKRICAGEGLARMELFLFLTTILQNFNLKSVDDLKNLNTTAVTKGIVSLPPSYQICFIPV
# ASSAY OVERVIEW: P450 inhibition 2C8
# Assay type: in vitro ADME
# MEASUREMENT SETUP: read-out: IC50 CYP450 2C8
pIC50: −log10 of the molar value.
PROPERTY: pIC50

> print(dat)
                                   compound                     target.or.test.system  recorded.value
1  Cc1ccc(-c2ncn(-c3ccc(Nc4nccc(-c5cccc(N6CCOCC6)c5)n4)cc3)n2)cn1 [SR-3306]  CYP P450 2C8 (Homo sapiens, UniProt P10632)          < 4.30

----------
# TARGET OR TEST SYSTEM: KIT (Homo sapiens, UniProt P10721)
# Sequence (P10721 26-976): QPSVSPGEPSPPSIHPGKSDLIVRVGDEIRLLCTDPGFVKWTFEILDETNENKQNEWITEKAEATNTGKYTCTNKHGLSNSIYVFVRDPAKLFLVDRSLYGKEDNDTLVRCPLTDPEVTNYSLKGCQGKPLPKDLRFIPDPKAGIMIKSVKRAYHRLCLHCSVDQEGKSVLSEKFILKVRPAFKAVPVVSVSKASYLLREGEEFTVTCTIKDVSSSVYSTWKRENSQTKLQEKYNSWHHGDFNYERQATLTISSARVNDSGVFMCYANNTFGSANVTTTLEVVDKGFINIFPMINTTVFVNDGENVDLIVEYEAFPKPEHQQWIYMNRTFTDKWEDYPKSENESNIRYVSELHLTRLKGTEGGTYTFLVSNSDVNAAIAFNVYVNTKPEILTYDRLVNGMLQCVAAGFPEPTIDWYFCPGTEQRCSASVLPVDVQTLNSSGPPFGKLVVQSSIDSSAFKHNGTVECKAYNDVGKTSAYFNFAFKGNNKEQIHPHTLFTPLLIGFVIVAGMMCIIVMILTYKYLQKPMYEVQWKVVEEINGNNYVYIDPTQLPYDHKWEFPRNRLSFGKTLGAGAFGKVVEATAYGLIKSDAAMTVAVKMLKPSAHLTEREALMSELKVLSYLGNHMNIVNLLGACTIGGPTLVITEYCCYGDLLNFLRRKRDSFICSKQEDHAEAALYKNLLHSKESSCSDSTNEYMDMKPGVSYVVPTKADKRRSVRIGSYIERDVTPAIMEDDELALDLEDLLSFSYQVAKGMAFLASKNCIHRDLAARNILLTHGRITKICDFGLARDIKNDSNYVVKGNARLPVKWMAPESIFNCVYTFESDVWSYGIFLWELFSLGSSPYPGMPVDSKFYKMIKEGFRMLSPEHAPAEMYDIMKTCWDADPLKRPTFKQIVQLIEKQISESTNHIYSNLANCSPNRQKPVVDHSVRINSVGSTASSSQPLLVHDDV
# ASSAY OVERVIEW: Ambit kinase panel screen, KIT
# Format: binding
# MEASUREMENT SETUP: suggested from Ambit panel at 3 μM
pKd: −log10 of the molar value.
PROPERTY: pKd

> print(dat)
                                   compound               target.or.test.system  property  recorded.value
1  Cc1ccc(-c2ncn(-c3ccc(Nc4nccc(-c5cccc(N6CCOCC6)c5)n4)cc3)n2)cn1 [SR-3306]  KIT (Homo sapiens, UniProt P10721)       pKd          > 6.00

----------
# TARGET OR TEST SYSTEM: TYK2 (Homo sapiens)
# ASSAY OVERVIEW: Ambit kinase panel screen, TYK2
# Assay type: binding
# MEASUREMENT SETUP: suggested from Ambit panel at 3 μM
pKd: −log10 of the molar value.
PROPERTY: pKd

> print(dat)
                           structure.smiles  property  recorded.value
1  Cc1ccc(-c2ncn(-c3ccc(Nc4nccc(-c5cccc(N6CCOCC6)c5)n4)cc3)n2)cn1       pKd          > 6.00

----------
Sequence of the target: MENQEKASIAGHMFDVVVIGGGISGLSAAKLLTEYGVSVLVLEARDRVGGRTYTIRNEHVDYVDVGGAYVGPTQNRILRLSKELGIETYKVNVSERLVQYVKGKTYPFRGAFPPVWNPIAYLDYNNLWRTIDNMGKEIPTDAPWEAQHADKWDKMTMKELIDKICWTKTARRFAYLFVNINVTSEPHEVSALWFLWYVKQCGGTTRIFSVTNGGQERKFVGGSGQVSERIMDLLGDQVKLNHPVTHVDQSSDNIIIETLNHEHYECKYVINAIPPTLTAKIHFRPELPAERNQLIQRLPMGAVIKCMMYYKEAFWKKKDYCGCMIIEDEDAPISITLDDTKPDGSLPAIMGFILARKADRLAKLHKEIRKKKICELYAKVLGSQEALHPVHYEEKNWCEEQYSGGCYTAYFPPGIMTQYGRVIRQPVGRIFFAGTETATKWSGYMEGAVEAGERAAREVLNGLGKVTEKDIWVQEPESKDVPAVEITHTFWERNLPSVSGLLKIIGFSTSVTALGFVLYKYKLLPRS
pIC50: −log10 of the molar value.
PROPERTY: pIC50

> print(dat)
                           structure.smiles  recorded.value
1  Cc1ccc(-c2ncn(-c3ccc(Nc4nccc(-c5cccc(N6CCOCC6)c5)n4)cc3)n2)cn1          < 4.30

----------
# TARGET OR TEST SYSTEM: CYP P450 3A4 (Homo sapiens, UniProt P08684)
# Sequence (P08684 whole entry): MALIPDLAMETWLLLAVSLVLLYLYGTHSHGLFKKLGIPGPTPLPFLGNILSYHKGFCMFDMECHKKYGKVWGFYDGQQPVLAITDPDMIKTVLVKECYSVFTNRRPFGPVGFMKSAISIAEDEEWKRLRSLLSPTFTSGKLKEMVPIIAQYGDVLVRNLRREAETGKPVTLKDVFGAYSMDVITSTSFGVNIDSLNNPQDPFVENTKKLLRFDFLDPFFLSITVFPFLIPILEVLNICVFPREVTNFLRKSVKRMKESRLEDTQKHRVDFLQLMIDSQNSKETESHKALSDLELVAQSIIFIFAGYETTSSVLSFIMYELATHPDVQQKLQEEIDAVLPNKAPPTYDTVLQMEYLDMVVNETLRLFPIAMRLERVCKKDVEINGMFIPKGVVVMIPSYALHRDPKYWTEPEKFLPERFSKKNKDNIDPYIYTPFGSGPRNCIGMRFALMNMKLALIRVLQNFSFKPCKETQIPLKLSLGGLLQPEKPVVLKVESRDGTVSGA
# MEASUREMENT SETUP: read-out: IC50 CYP450 3A4
PROPERTY: IC50

> print(dat)
                           structure.smiles  recorded.value
1  Cc1ccc(-c2ncn(-c3ccc(Nc4nccc(-c5cccc(N6CCOCC6)c5)n4)cc3)n2)cn1         > 50 µM

----------
# TARGET OR TEST SYSTEM: KIT V559D (Homo sapiens, UniProt P10721, V559D)
# Sequence (P10721 26-976 V559D): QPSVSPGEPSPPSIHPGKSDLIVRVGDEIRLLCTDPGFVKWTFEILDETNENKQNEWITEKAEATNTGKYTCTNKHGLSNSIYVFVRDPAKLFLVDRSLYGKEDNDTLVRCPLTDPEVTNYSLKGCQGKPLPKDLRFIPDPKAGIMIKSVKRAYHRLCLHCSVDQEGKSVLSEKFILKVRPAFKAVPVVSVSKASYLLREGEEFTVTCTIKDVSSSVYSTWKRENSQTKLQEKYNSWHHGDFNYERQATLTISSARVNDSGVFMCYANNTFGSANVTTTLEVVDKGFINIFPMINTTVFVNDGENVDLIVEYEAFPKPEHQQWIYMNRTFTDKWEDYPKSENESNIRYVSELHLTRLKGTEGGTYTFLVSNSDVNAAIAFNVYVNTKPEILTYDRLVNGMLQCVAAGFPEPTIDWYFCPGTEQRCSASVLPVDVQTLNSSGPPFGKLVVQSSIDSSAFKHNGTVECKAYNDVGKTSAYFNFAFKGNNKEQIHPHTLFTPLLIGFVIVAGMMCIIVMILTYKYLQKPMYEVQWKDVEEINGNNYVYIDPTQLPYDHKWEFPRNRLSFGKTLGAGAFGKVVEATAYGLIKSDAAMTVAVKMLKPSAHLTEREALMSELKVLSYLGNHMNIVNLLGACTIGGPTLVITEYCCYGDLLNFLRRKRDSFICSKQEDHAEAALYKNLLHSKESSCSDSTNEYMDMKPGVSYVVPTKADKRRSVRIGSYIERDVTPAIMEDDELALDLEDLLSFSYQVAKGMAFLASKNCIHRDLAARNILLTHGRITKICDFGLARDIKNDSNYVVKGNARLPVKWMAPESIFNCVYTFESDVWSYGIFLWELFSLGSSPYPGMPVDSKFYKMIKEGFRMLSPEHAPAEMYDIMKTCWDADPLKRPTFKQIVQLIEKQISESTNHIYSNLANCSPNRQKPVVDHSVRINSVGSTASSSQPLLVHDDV
# ASSAY OVERVIEW: Ambit kinase panel screen, KIT V559D
# MEASUREMENT SETUP: suggested from Ambit panel at 3 μM
PROPERTY: Kd

> print(dat)
                           structure.smiles                     target.or.test.system  recorded.value
1  Cc1ccc(-c2ncn(-c3ccc(Nc4nccc(-c5cccc(N6CCOCC6)c5)n4)cc3)n2)cn1  KIT V559D (Homo sapiens, UniProt P10721, V559D)       < 1000 nM

----------
# TARGET OR TEST SYSTEM: CYP P450 2B6 (Homo sapiens, UniProt P20813)
# Sequence (P20813 whole entry): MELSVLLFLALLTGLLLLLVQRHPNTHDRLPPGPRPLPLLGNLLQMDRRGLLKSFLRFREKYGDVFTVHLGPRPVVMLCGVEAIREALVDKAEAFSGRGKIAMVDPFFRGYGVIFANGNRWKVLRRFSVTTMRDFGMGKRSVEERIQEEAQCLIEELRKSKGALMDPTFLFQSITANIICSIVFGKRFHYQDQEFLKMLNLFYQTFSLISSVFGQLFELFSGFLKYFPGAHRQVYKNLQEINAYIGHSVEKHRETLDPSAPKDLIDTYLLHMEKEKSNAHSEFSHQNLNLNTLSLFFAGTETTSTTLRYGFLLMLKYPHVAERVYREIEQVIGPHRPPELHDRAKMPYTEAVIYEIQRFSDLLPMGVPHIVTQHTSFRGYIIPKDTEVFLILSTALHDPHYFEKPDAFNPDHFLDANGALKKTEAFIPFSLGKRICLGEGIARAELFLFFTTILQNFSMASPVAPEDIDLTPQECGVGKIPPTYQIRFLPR
# ASSAY OVERVIEW: P450 inhibition 2B6
# Assay type: in vitro ADME
# MEASUREMENT SETUP: read-out: IC50 CYP450 2B6
pIC50: −log10 of the molar value.
PROPERTY: pIC50

> print(dat)
                                   compound  property  recorded.value
1  Cc1ccc(-c2ncn(-c3ccc(Nc4nccc(-c5cccc(N6CCOCC6)c5)n4)cc3)n2)cn1 [SR-3306]     pIC50          < 4.30

----------
# TARGET OR TEST SYSTEM: CYP P450 1A2 (Homo sapiens, UniProt P05177)
# Sequence (P05177 1-516): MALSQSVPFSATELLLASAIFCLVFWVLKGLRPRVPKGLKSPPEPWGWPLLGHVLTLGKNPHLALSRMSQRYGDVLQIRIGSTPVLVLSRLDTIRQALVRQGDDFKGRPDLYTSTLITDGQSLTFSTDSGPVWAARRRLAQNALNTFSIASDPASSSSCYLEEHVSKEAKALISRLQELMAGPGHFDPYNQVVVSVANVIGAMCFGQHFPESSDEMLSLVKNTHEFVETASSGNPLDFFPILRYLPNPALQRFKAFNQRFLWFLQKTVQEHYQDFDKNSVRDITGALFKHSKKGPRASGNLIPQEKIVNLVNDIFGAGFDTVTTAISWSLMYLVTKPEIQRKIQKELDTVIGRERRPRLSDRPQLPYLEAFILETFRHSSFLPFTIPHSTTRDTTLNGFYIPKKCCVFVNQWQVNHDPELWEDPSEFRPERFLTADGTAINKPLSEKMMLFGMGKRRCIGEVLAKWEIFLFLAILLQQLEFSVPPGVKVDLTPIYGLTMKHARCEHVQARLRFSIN
# ASSAY OVERVIEW: P450 inhibition 1A2
# Assay type: in vitro ADME
# MEASUREMENT SETUP: read-out: IC50 CYP450 1A2
pIC50: −log10 of the molar value.
PROPERTY: pIC50

> print(dat)
                                   compound  property  recorded.value
1  Cc1ccc(-c2ncn(-c3ccc(Nc4nccc(-c5cccc(N6CCOCC6)c5)n4)cc3)n2)cn1 [SR-3306]     pIC50          < 4.30

----------
# TARGET OR TEST SYSTEM: CYP P450 2D6 (Homo sapiens)
# Sequence (P10635 whole entry): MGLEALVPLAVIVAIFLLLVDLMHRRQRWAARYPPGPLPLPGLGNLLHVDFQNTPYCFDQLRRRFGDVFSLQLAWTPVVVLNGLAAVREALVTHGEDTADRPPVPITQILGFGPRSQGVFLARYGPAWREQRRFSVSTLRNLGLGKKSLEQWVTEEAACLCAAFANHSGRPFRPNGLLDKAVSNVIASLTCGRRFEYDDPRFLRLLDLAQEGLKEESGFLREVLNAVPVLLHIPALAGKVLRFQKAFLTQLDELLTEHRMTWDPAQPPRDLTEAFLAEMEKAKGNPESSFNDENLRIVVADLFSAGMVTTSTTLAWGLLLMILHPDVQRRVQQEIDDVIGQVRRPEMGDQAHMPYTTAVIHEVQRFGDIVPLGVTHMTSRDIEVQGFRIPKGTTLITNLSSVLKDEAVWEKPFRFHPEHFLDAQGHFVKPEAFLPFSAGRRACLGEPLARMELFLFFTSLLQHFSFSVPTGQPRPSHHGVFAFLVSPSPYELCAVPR
# ASSAY OVERVIEW: P450 inhibition 2D6
# Type: in vitro ADME
# MEASUREMENT SETUP: read-out: IC50 CYP450 2D6
PROPERTY: IC50

> print(dat)
                           structure.smiles        target.or.test.system  property  recorded.value
1  Cc1ccc(-c2ncn(-c3ccc(Nc4nccc(-c5cccc(N6CCOCC6)c5)n4)cc3)n2)cn1  CYP P450 2D6 (Homo sapiens)      IC50         > 50 µM
